assayDetails: Acute toxicity in mice
assayConditions: mouse, in vivo, ip, intraperitoneal administration
reportedMetric: LD50

Form field LD50, entry CC(=O)Oc1ccccc1C(=O)Nc1ncc([N+](=O)[O-])s1 [PH 5776] : > 95 mg/kg

----------
Below is a list of entries, each paired with its recorded Syphacia: (3) number of subjects from which the parasite has been eradicated value.
Test system: Syphacia obvelata
assayDetails: Test for anthelminthics, nematodes (R. CAVIER)
Assay type: in vivo
assayConditions: Table II; 10 subjects

Below, 3 compounds whose answers are already recorded.
CC(=O)Oc1ccc(C(=O)Nc2ncc([N+](=O)[O-])s2)c(OC(C)=O)c1: 2
CC(=O)Oc1ccc(OC(C)=O)c(C(=O)Nc2ncc([N+](=O)[O-])s2)c1: 1
CC(=O)Oc1ccc(C(=O)Nc2ncc([N+](=O)[O-])s2)cc1: 2

The reported Syphacia: (3) number of subjects from which the parasite has been eradicated of the compound "CC(=O)Oc1ccc(Br)cc1C(=O)Nc1ncc([N+](=O)[O-])s1" was 2

GET /value?item= "CC(=O)Oc1cccc(C(=O)Nc2ncc([N+](=O)[O-])s2)c1OC(C)=O" &field=Syphacia: (3) number of subjects from which the parasite has been eradicated returns 1

----------
Listing of recorded Syphacia: (3) number of subjects from which the parasite has been eradicated by entry.
Tested on: Syphacia obvelata
assayDetails: Test for anthelminthics, nematodes (R. CAVIER)
Format: in vivo
assayConditions: Table II; 10 subjects
Give your answer as a number; write no unit.

Memo: "COc1cc(C(=O)Nc2ncc([N+](=O)[O-])s2)cc(OC)c1OC(C)=O" , reported Syphacia: (3) number of subjects from which the parasite has been eradicated: 2

Lab book: Syphacia: (3) number of subjects from which the parasite has been eradicated of "CC(=O)Oc1ccc(Cl)cc1C(=O)Nc1ncc([N+](=O)[O-])s1" noted as 2

The compound listed as "COc1cc(C(=O)Nc2ncc([N+](=O)[O-])s2)ccc1OC(C)=O" shows Syphacia: (3) number of subjects from which the parasite has been eradicated equal to 0

----------
Listing: Syphacia: (3) number of subjects from which the parasite has been eradicated of selected compounds
System: Syphacia obvelata
assayDetails: Test for anthelminthics, nematodes (R. CAVIER)
Type: in vivo
assayConditions: Table II; 10 subjects

Recorded Syphacia: (3) number of subjects from which the parasite has been eradicated, per entry:
CC(=O)Oc1cc(C(=O)Nc2ncc([N+](=O)[O-])s2)cc(OC(C)=O)c1OC(C)=O: 0
CCC(=O)Oc1ccccc1C(=O)Nc1ncc([N+](=O)[O-])s1: 2
CC(=O)Oc1ccc(C(=O)Nc2ncc([N+](=O)[O-])s2)cc1OC(C)=O: 2
CC(=O)Oc1cc(OC(C)=O)cc(C(=O)Nc2ncc([N+](=O)[O-])s2)c1: 7
CC(=O)Oc1ccccc1C(=O)Nc1ncc([N+](=O)[O-])s1: 6

Here is another compound to look at.
Just so you know, measured Syphacia: (3) number of subjects from which the parasite has been eradicated for "CC(=O)Oc1cccc(C(=O)Nc2ncc([N+](=O)[O-])s2)c1" came out at 0
